FYI, the data here is from the Human Domainome abundance scans (Beltran et al. 2025).

B1: Cyclin-F, residues 28 to 80; numbered along this chain, P41002 (parent)
chain: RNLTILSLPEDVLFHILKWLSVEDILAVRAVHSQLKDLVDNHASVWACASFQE

Variants of: B1
Assay: abundance fitness (aPCA) (normalised: wild type 0, dead -1); higher = more abundant; growth selection in yeast, the domain comes from the species named
Settings: Homo sapiens
quantity: abundance fitness
Please state the value as a number alone, without comment.

residue-string | abundance fitness
RNLTILSLPEDVLFHILKWLSVEDILAVRAVHSQLKDLVDNHASVSACASFQE [W46S] | -0.314
RNLNILSLPEDVLFHILKWLSVEDILAVRAVHSQLKDLVDNHASVWACASFQE [T4N] | -0.046
RNLTILSLPEDVLFHILKWLSVEDILAVRAVHSQLKDLVDNHASVWACASFVE [Q52V] | -0.123
RNLTILSLPEDVLFHILKWLSVEDILAVRASHSQLKDLVDNHASVWACASFQE [V31S] | 0.191
RNLTILSLPEDVLFHILKWLSVEDILAVRAVHSQLKDLVDNHASVWACAFFQE [S50F] | -0.668
RNLTILSLPEDMLFHILKWLSVEDILAVRAVHSQLKDLVDNHASVWACASFQE [V12M] | -0.924
RNLTILSLPEDVLFHILKWLSVEDILAVRAVHSQLKDLVDNHASVAACASFQE [W46A] | -0.283
RNLTILSLPEDVLFHILKWLSVEDILAVRAVHSQLYDLVDNHASVWACASFQE [K36Y] | -0.883

Given the variant RNLTILSLPEDVLFHILKWLSVEDILAVRAVHSQLKDLVDNHASVWWCASFQE [A47W] , what is its reported abundance fitness?
-0.374

Param item: RNLTILSLPEDVLFHILKWLSVEDILAVRAVHSQWKDLVDNHASVWACASFQE [L35W]
-0.567

Param item: RNLTILSLPEDVCFHILKWLSVEDILAVRAVHSQLKDLVDNHASVWACASFQE [L13C]
-0.933

Param item: RNLTILSLPEDVLFHILKWLSVEDILAVRAVISQLKDLVDNHASVWACASFQE [H32I]
-0.825

Param item: RNLTILNLPEDVLFHILKWLSVEDILAVRAVHSQLKDLVDNHASVWACASFQE [S7N]
-0.118

Param item: RNLTILSLPEDVLFQILKWLSVEDILAVRAVHSQLKDLVDNHASVWACASFQE [H15Q]
-0.356

Param item: RNLTILSLPEDVLFHILKWLSVEDILAVRAVHSQLNDLVDNHASVWACASFQE [K36N]
-0.779

Param item: RNLTILSLPEDVLFHILKWLSVEPILAVRAVHSQLKDLVDNHASVWACASFQE [D24P]
-0.661

Param item: RNLTILSLPEDTLFHILKWLSVEDILAVRAVHSQLKDLVDNHASVWACASFQE [V12T]
-0.493

Param item: RNLTILSLPEDVLFHILKWLSVEDILAVRACHSQLKDLVDNHASVWACASFQE [V31C]
-0.056

Param item: RNLTILSLPPDVLFHILKWLSVEDILAVRAVHSQLKDLVDNHASVWACASFQE [E10P]
-0.357

Param item: RNLTILSLPEDVLFHILKWESVEDILAVRAVHSQLKDLVDNHASVWACASFQE [L20E]
-0.982

Param item: RNLTILSLPEDVRFHILKWLSVEDILAVRAVHSQLKDLVDNHASVWACASFQE [L13R]
-0.633
